Reference source: the supplement of paper PMC9170038

# System: K4 kissing-loop RNA reporter;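 also: bound reporter read as fluorescence of individual clusters on recovered sequencing chips by microscopy, with normalized cluster intensities fitted with a binding model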
# assayComment: apparent KD of K4 kissing-loop reporter; higher = weaker reporter binding
# appliedConditions: Eterna round: R107; input ligand: tryptophan 2.4 mM
Recorded apparent KD of K4 kissing-loop reporter by entry
Your answer is read as nM, so omit the unit and give the number.

{"columns": ["macromoleculeSequence", "target", "dataValue"],
 "data": [
  ["CUUAGGUCAGUUACCCGAGUGAUGUUCUGUCGAGGACCGGUACGGCCGCCACUCGCUCAUUAUCGGUCUGACAAAGAGCUGGCUU [theeternabot_exclusion_KL_Trp_A_9]", "K4 kissing-loop RNA reporter", 106],
  ["CUUGAUGUAGCGGCCGCCACUCUAGAUCCGCAUCGGAUGAGGUACUUGAAGUGAUGUUUUGAGGUGAGGACCGGGCUCUAAAGAA [theeternabot_sameState_KL_Trp_B_16]", "K4 kissing-loop RNA reporter", 420]
]}

## Input So what does the record say about apparent KD of K4 kissing-loop reporter for CCUUCUCUUGAUAGUGAUGUUAUCGAGGACAAGGAUAUCAUCUCAAUGAGAAGGUGUCCUUGAUAACAUGGAGGUCUGAAACAGA [Omei KL FMN A Exc C v9] ?
## Output 454

## Input Then this sequence: AGUGAUAUAUGAGGAUAUGGGAUUGUUAAUGAGUUAGUUUUAGUGUUGUUUGGUUAGUGAUGUUAUUUAGAAGGCGUGAGUGAUG [kuktrmullin]
## Output 70.4

## Input Then this sequence: UGACAUUGCUCAGAUACCAGACAUGAGCAUCAGCCAUGUACCAAGAAAGUACAAUAAAAUGUCCCUUGGCAGCUGAGCAAUGUCU [TheoBX 8]
## Output 48.4

## Input Then this sequence: UUGGCUGGACGGGAUACCAGCCAAAUCGUGGGCUUGGGAUGUCUAAGAGCCAGUGAUGUUGGCCCUUGGCAGCCCUCCCAGCUUG [Xerirala]
## Output 113
